These entries and their values trace back to the METLIN SMRT retention time set (Domingo-Almenara et al. 2019).

Experiment: gradient 5% acetonitrile 3 min, to 50% in 2 min, to 85% in 15 min, held 3 min, 100 µL/min
Details: column: Zorbax Extend-C18 2.1 x 50 mm; eluents: water / acetonitrile, 0.1% formic acid
measure-name: RP-LC retention time (s)

Observe how each entry below is paired with its result.
> print(dat)
                                   compound  measured.number
1  CCc1ccc(NS(=O)(=O)c2cc3n(c2)CCCN(CC)C3=O)cc1              801
2  COc1ccc(C(C)NC(=O)c2c(C)sc3ccn(CC(C)C)c(=O)c23)cc1 (stereo not given)              962
3            C=CCNC(=O)c1ccc2nc(C)c(C)nc2c1              626

1 = CCCNC(=O)C1CCN(c2ccc(SCC(=O)Nc3cccc(C(C)C)c3)nn2)CC1
2 = COc1ccc(OC)c(-c2csc(-c3nnn(-c4ccc(F)cc4)c3N)n2)c1
Query string: Compare RP-LC retention time: is it lower for 1 or for 2 ? The response must carry the label of the picked entry.
Result string: 1
